Structures can show the parent of a compound that is named as a salt.
property: melting point

Solved entries (count: 3):
Exercise: Specify measured melting point for FC(F)(F)c1ccc(CN2CCN(CCc3ccccc3)CC2)cn1 (as salt: hydrobromid) [LK-9107, trihydrobromide] .
Solution: 225 to 228 °C

Exercise: Specify measured melting point for Clc1ccc(CCN2CCN(CCc3ccccn3)CC2)cc1Cl (as salt: hydrobromid) [LK-9137, trihydrobromide] .
Solution: 207 to 209 °C

Exercise: Specify measured melting point for FC(F)(F)c1cnc(N2CCCN(CCc3ccccc3)CC2)c(Cl)c1 (as salt: hydrobromid) [LK-9115, trihydrobromide] .
Solution: 175 to 177 °C

Others:
Exercise: Specify measured melting point for Clc1ccc(CCN2CCN(CCc3ccncc3)CC2)cc1Cl (as salt: hydrobromid) [LK-9135, trihydrobromide] .
Solution: 253 to 255 °C

Exercise: Specify measured melting point for c1ccc(CCN2CCN(CCCc3cccnc3)CC2)cc1 (as salt: hydrobromid) [LK-9140, trihydrobromide] .
Solution: 262 to 264 °C

Exercise: Specify measured melting point for COc1ccc(CN2CCN(CCc3ccccc3)CC2)cn1 (as salt: hydrobromid) [LK-9106, trihydrobromide] .
Solution: 215 to 217 °C

Exercise: Specify measured melting point for OC(CN1CCN(c2ccc(F)cc2)CC1)c1cccnc1 (stereo not drawn) (as salt: hydrobromid) [LK-9144, trihydrobromide] .
Solution: 198 to 201 °C

Exercise: Specify measured melting point for Fc1ccc(CCN2CCN(CCc3ccccn3)CC2)cc1F (as salt: hydrobromid) [LK-9138, trihydrobromide] .
Solution: 212 to 213 °C

Exercise: Specify measured melting point for OC(CN1CCN(CCc2ccccc2)CC1)c1ccc2ccccc2c1 (stereo not drawn) [LK-9111B] .
Solution: 126 to 129 °C

* * *

- Tested on: cholesterol biosynthesis in HepG2 cells
- protocol.details: Metabolic labeling of HepG2 cells with [3H]acetate; radio-HPLC sterol profile (inhibition of cholesterol biosynthesis)
- Type: cell-based, human
- study.conditions: Table II (arranged by sterol profile); 10 μM compound, HepG2; normalized to normal medium (1.00)
Where a name gives a salt, the structure may show the parent alone.
Label scheme for zymosterol+7-dehydrocholesterol: lower than 1 is f, 1 and above is t.

Example results:
Exercise: Reported zymosterol+7-dehydrocholesterol reaches at least 1 for O=C(Cc1cccnc1)N1CCN(CCc2ccccc2)CC1 [LK-9101B] ?
Solution: t

Exercise: Reported zymosterol+7-dehydrocholesterol reaches at least 1 for OC(CN1CCN(CCc2ccccc2)CC1)c1ccncc1 (stereo not shown) [LK-9110B] ?
Solution: t

Others:
Exercise: Reported zymosterol+7-dehydrocholesterol reaches at least 1 for CC(C)c1c(C(=O)Nc2ccccc2)c(-c2ccccc2)c(-c2ccc(F)cc2)n1CC[C@@H](O)C[C@@H](O)CC(=O)O [atorvastatin, reference compound] ?
Solution: f

Exercise: Reported zymosterol+7-dehydrocholesterol reaches at least 1 for OC(CN1CCN(CCc2ccccc2)CC1)c1ccc2ccccc2c1 (stereo not shown) [LK-9111B] ?
Solution: t

Exercise: Reported zymosterol+7-dehydrocholesterol reaches at least 1 for FC(F)(F)c1ccc(CN2CCN(CCc3ccccc3)CC2)cn1 [LK-9107, trihydrobromide] ?
Solution: f

Reference source: patent US20090018118A1
